molecular target: T1, human CLDN18.2 (human); assay: FACS on HEK293/hCLDN18.2 cells
T1 construct: the HEK293 line was made with a GenScript plasmid; also called hCLDN18.2
RESULT TYPE: Emax (MFI)
Write down the numeric answer in MFI and omit the unit.

Worked set:
{"BINDER": "PR007246 (antibody, human IgG1, V domains shown, HCDR2 PTM-removal mutant of PR004533; HCAb, human IgG1 Fc; also called 4533_M3F10) VH: EVQLVESGGGLVQPGGSLRLSCAASGFTFSSYWMHWVRQVPGKGLVWVSRISSTGSRTIYADSVKGRFTISRDNAKNTLYLQMNSLRAEDTAVYYCARGEDHDILTGYPIRGQGTTVTVSS", "RESULT TYPE": "Emax (MFI)", "UNITS": "MFI", "VALUE OBSERVED": "1.37e+06"}
{"BINDER": "PR007245 (antibody, human IgG1, V domains shown, HCDR2 PTM-removal mutant of PR004533; HCAb, human IgG1 Fc; also called 4533_M6E6) VH: EVQLVESGGGLVQPGGSLRLSCAASGFTFSSYWMHWVRQVPGKGLVWVSRISSDASRTIYADSVKGRFTISRDNAKNTLYLQMNSLRAEDTAVYYCARGEDHDILTGYPIRGQGTTVTVSS", "RESULT TYPE": "Emax (MFI)", "UNITS": "MFI", "VALUE OBSERVED": "1.31e+06"}
{"BINDER": "PR007244 (antibody, human IgG1, V domains shown, HCDR2 PTM-removal mutant of PR004533; HCAb, human IgG1 Fc; also called 4533_M4H6) VH: EVQLVESGGGLVQPGGSLRLSCAASGFTFSSYWMHWVRQVPGKGLVWVSRIDSRGSRTIYADSVKGRFTISRDNAKNTLYLQMNSLRAEDTAVYYCARGEDHDILTGYPIRGQGTTVTVSS", "RESULT TYPE": "Emax (MFI)", "UNITS": "MFI", "VALUE OBSERVED": "1.3e+06"}

// next entry
What measured Emax (MFI) goes with PR007247 (antibody, human IgG1, V domains shown, HCDR2 PTM-removal mutant of PR004536; HCAb, human IgG1 Fc; also called 4536_M8A6) VH: EVQLVESGGGLVQPGGSLRLSCAASGFTFSSYWMYWVRQVPGKGLVWVSHINPLGSTTQYADSVKGRFTISRDNAKNMLYLQMNSLRAEDTAVYYCARDFPVLGGSHFDFQHWGQGTLVTVSS ?
1.27e+06
